- Tested on: Sclerotinia sclerotiorum
- ASSAY REMARKS: Inhibition of Sclerotina sclerotiorums brassinin glucosyl transferase assessed as percent relative activity in relative to brassinin at 0.30 mM
- Design: scale not given: the % may be the effect or the level left

[
  {
    "SMILES NOTATION": "Fc1cccc2[nH]cc(-c3ccccc3)c12",
    "Activity [%]": 37
  },
  {
    "SMILES NOTATION": "Fc1ccc2[nH]cc(-c3nccs3)c2c1",
    "Activity [%]": 54
  },
  {
    "SMILES NOTATION": "CSC(=S)NCc1cc2ccccc2[nH]1",
    "Activity [%]": 42
  }
]
